Data provenance is patent US8841449B2.

target: ATR kinase (full-length ATR) (Homo sapiens, UniProt Q13535); construct: Assays were carried out at 25° C. in the presence of 5 nM full-length ATR; experiment: ATR Inhibition Assay (radioactive-phosphate incorporation); details: Ki(app); 10 μM ATP, 800 μM target peptide, 5 nM full-length ATR, 25° C.
Sequence (Q13535 whole entry): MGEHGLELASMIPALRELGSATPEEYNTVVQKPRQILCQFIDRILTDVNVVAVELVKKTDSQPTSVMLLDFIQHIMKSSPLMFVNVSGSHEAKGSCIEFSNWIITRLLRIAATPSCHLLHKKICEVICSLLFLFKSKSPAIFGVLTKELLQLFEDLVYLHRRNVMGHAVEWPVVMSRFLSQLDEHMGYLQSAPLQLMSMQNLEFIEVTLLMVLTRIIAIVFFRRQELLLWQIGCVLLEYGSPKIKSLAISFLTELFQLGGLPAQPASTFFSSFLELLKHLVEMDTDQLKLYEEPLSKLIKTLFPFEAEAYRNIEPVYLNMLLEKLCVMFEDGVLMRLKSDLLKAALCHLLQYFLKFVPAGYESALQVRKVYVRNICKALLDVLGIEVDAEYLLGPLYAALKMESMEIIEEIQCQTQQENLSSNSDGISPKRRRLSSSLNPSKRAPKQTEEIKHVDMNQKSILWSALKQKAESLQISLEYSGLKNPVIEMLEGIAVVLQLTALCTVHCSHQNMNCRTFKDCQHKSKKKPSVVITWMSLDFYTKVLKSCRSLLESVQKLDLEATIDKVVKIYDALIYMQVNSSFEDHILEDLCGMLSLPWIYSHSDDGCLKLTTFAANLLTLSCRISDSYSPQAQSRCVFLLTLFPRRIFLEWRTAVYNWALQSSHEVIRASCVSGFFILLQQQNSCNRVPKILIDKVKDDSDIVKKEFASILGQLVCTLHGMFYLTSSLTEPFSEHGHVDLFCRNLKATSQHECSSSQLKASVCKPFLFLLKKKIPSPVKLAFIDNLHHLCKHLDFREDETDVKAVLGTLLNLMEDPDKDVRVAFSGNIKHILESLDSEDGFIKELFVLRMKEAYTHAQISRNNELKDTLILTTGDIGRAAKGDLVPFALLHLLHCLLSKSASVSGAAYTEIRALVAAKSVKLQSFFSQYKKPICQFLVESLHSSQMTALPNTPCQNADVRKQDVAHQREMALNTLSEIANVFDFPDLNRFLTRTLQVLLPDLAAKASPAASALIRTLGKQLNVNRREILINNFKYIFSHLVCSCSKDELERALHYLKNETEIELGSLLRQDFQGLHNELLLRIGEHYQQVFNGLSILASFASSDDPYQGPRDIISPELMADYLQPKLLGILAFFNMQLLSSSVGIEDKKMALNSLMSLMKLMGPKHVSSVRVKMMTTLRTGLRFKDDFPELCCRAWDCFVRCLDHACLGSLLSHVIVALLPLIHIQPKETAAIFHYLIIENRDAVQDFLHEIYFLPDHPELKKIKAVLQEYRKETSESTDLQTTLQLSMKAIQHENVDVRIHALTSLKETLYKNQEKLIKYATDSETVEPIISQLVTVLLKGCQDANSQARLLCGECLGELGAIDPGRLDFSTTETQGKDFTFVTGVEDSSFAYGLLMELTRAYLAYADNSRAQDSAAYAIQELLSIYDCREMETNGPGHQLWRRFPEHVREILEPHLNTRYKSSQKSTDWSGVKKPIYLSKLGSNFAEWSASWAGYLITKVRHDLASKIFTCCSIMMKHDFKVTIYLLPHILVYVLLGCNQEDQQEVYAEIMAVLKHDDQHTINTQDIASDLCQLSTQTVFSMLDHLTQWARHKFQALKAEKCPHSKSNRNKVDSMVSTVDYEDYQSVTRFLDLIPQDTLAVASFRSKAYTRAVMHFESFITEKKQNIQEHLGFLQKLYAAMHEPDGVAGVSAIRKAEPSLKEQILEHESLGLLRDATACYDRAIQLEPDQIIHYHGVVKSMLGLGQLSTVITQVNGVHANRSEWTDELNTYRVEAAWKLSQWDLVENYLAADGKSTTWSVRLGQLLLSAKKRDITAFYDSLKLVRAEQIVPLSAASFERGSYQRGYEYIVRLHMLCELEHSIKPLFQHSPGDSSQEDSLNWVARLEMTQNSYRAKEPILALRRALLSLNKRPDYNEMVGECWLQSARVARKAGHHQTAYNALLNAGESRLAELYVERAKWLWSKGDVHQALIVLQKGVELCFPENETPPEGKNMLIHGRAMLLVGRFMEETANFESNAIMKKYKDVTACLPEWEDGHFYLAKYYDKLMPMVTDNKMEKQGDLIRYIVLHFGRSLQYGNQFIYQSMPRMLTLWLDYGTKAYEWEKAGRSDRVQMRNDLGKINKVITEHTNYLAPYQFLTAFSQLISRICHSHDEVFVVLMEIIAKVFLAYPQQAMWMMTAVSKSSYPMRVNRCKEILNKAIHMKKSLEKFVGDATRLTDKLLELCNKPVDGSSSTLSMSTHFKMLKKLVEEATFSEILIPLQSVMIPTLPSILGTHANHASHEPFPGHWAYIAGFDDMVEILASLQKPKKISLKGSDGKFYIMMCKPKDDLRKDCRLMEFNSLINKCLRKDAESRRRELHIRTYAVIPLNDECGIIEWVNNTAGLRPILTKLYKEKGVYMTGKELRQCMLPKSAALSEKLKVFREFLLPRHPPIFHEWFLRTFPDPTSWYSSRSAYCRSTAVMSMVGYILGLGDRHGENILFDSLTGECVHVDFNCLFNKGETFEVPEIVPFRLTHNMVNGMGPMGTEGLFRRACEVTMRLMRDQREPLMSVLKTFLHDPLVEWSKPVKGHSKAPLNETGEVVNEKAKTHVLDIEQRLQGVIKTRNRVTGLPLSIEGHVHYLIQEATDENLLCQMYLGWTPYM
Endpoint Label: Ki

# Compound, Ki
rows = [
    ("Nc1ncc(-c2ccc(S(=O)(=O)C3CCCNC3)cc2)nc1-c1cc(-c2ccc(CNC3CCOCC3)cc2)no1 (stereo not drawn)", "≤ 5 nM"),
    ("COc1ccccc1-c1cc(-c2nc(-c3ccc(S(=O)(=O)C4CCCNC4)cc3)cnc2N)on1 (stereo not drawn)", "5 to 10 nM"),
    ("Nc1ncc(-c2ccc(S(=O)(=O)C3CCCNC3)cc2)nc1-c1nnc(-c2ccccc2)o1 (stereo not drawn)", "≤ 5 nM"),
    ("Nc1ncc(-c2ccc(S(=O)(=O)C3CCCNC3)cc2)nc1-c1cc(-c2ccc(O)cc2)no1 (stereo not drawn)", "≤ 5 nM"),
    ("Nc1ncc(-c2ccc(S(=O)(=O)C3CCCNC3)cc2)nc1-c1cc(-c2nccs2)no1 (stereo not drawn)", "≤ 5 nM"),
    ("CNCc1ccc(-c2cc(-c3nc(-c4ccc(S(=O)(=O)C5CCCNC5)cc4)cnc3N)on2)cc1 (stereo not drawn)", "≤ 5 nM"),
    ("Nc1ncc(-c2ccc(S(=O)(=O)C3CCCNC3)cc2)nc1-c1cc(-c2ccccc2)no1 (stereo not drawn)", "≤ 5 nM"),
    ("Nc1ncc(-c2ccc(S(=O)(=O)C3CCCNC3)cc2)nc1-c1cc(-c2ccc(CO)cc2)no1 (stereo not drawn)", "5 to 10 nM"),
    ("Nc1ncc(-c2ccc(S(=O)(=O)C3CCCNC3)cc2)nc1-c1nnc(-c2cccs2)o1 (stereo not drawn)", "≤ 5 nM"),
    ("Nc1ncc(-c2ccc(S(=O)(=O)C3CCCNC3)cc2)nc1-c1cc(-c2ccc(OCCO)cc2)no1 (stereo not drawn)", "5 to 10 nM"),
]

Task: So what does the record say about Ki for Cc1ccsc1-c1nnc(-c2nc(-c3ccc(S(=O)(=O)C4CCCNC4)cc3)cnc2N)o1 (stereo not drawn) ?
Output: ≤ 5 nM

Task: Further, for Cc1ccsc1-c1cc(-c2nc(-c3ccc(S(=O)(=O)C4CCCNC4)cc3)cnc2N)on1 (stereo not drawn) ?
Output: ≤ 5 nM

Task: # repeat for Nc1ncc(-c2ccc(S(=O)(=O)C3CCCNC3)cc2)nc1-c1cc(-c2ccsc2)no1 (stereo not drawn)
Output: ≤ 5 nM

Task: Could you do the same for Nc1ncc(-c2ccc(S(=O)(=O)C3CCCNC3)cc2)nc1-c1nnc(-c2ccccc2)s1 (stereo not drawn) , please?
Output: ≤ 5 nM

Task: Also, Nc1ncc(-c2ccc(S(=O)(=O)C3CCCNC3)cc2)nc1-c1nnc(-c2sccc2F)o1 (stereo not drawn) please.
Output: ≤ 5 nM
